In this section we review reported tissue uptake at 24 h values for a set of compounds.
Experiment: in vivo
Conditions: CD1 nude, mouse, 0.5 nmol/mouse, total radioactivity, Heart uptake
observable: tissue uptake at 24 h (%ID/g)

| compound | observable | unit info | data value |
| --- | --- | --- | --- |
| Cc1ccc(CCCC(=O)NCCOCCOCCOCCC(=O)NCCCC[C@H](NC(=O)CN2CCN(CC(=O)O)CCN(CC(=O)O)CCN(CC(=O)O)CC2)C(=O)N[C@@H](CC(=O)O)C(=O)N[C@@H](CC2CCCCC2)C(=O)N[C@@H](Cc2ccccc2)C(=O)N[C@H](CO)C(=O)N[C@H](CCCNC(=N)N)C(=O)N[C@@H](Cc2ccc(O)cc2)C(=O)N[C@@H](CC(C)C)C(=O)N[C@@H](Cc2c[nH]c3ccccc23)C(=O)N[C@@H](CO)C(N)=O)cc1 [[^177Lu]Lu-uPAR-15, metal not drawn] | tissue uptake at 24 h | %ID/g | 0.13 |
| Cc1ccc(CCCC(=O)NCCOCCOCCOCCOCCC(=O)NCCCC[C@H](NC(=O)CN2CCN(CC(=O)O)CCN(CC(=O)O)CCN(CC(=O)O)CC2)C(=O)N[C@@H](CC(=O)O)C(=O)N[C@@H](CC2CCCCC2)C(=O)N[C@@H](Cc2ccccc2)C(=O)N[C@H](CO)C(=O)N[C@H](CCCNC(=N)N)C(=O)N[C@@H](Cc2ccc(O)cc2)C(=O)N[C@@H](CC(C)C)C(=O)N[C@@H](Cc2c[nH]c3ccccc23)C(=O)N[C@@H](CO)C(N)=O)cc1 [[^177Lu]Lu-uPAR-11, metal not drawn] | tissue uptake at 24 h | %ID/g | 0.12 |
| Cc1ccc(CCCC(=O)NCCOCCOCCOCCOCCC(=O)NC[C@H](NC(=O)CN2CCN(CC(=O)O)CCN(CC(=O)O)CCN(CC(=O)O)CC2)C(=O)N[C@@H](CC(=O)O)C(=O)N[C@@H](CC2CCCCC2)C(=O)N[C@@H](Cc2ccccc2)C(=O)N[C@H](CO)C(=O)N[C@H](CCCNC(=N)N)C(=O)N[C@@H](Cc2ccc(O)cc2)C(=O)N[C@@H](CC(C)C)C(=O)N[C@@H](Cc2c[nH]c3ccccc23)C(=O)N[C@@H](CO)C(N)=O)cc1 [[^177Lu]Lu-uPAR-14, metal not drawn] | tissue uptake at 24 h | %ID/g | 0.15 |
| Cc1ccc(CCCC(=O)NCCCCCCCC(=O)NCCCC[C@H](NC(=O)CN2CCN(CC(=O)O)CCN(CC(=O)O)CCN(CC(=O)O)CC2)C(=O)N[C@@H](CC(=O)O)C(=O)N[C@@H](CC2CCCCC2)C(=O)N[C@@H](Cc2ccccc2)C(=O)N[C@H](CO)C(=O)N[C@H](CCCNC(=N)N)C(=O)N[C@@H](Cc2ccc(O)cc2)C(=O)N[C@@H](CC(C)C)C(=O)N[C@@H](Cc2c[nH]c3ccccc23)C(=O)N[C@@H](CO)C(N)=O)cc1 [[^177Lu]Lu-uPAR-12, metal not drawn] | tissue uptake at 24 h | %ID/g | 1.6 |
